test: activity coefficient (dimensionless); of the first substance listed, at infinite dilution; xn = mol fraction of the nth substance listed; conditions: 303.15 K; 101.33 kPa; Liquid; Chromatography; x1 = 0
# activity coefficient per entry

Some compounds with recorded activity coefficient:
CCCCCCCCCC [decane] + CCCCn1cc[n+](C)c1.[O-][Cl+3]([O-])([O-])[O-]; 226
C1=CCCCC1 [cyclohexene] + CCCCn1cc[n+](C)c1.[O-][Cl+3]([O-])([O-])[O-]; 15.1
CC(C)O [propan-2-ol] + CCCCn1cc[n+](C)c1.[O-][Cl+3]([O-])([O-])[O-]; 2.27

Then this compound:
Data request, read-out activity coefficient, for CCCCCCC [heptane] + CCCCn1cc[n+](C)c1.[O-][Cl+3]([O-])([O-])[O-]
85.9

====

Parameter: activity coefficient. Scope: all listed entries.
test: activity coefficient (dimensionless); of the first substance listed, at infinite dilution; xn = mol fraction of the nth substance listed; conditions: 353.15 K; 101.33 kPa; Liquid; Chromatography; x1 = 0
Field format: numeric only.

Recorded results for 7 compounds are shown here.
C1=CCCCC1 [cyclohexene] + CCCCn1cc[n+](C)c1.[O-][Cl+3]([O-])([O-])[O-]; 14.2
c1ccccc1 [benzene] + CCCCn1cc[n+](C)c1.[O-][Cl+3]([O-])([O-])[O-]; 2.17
CCOC(C)=O [ethyl acetate] + CCCCn1cc[n+](C)c1.[O-][Cl+3]([O-])([O-])[O-]; 2.78
ClCCl [dichloromethane] + CCCCn1cc[n+](C)c1.[O-][Cl+3]([O-])([O-])[O-]; 1.13
O [water] + CCCCn1cc[n+](C)c1.[O-][Cl+3]([O-])([O-])[O-]; 1
Cc1cccc(C)c1 [1,3-dimethylbenzene] + CCCCn1cc[n+](C)c1.[O-][Cl+3]([O-])([O-])[O-]; 5.36
CO [methanol] + CCCCn1cc[n+](C)c1.[O-][Cl+3]([O-])([O-])[O-]; 1

Please turn your attention to the following entry.
Requested read-out: activity coefficient. Entry: Cc1ccccc1 [toluene] + CCCCn1cc[n+](C)c1.[O-][Cl+3]([O-])([O-])[O-]
3.38

====

experiment: activity coefficient (dimensionless); of the first substance listed, at infinite dilution; xn = mol fraction of the nth substance listed; conditions: 333.15 K; 101.33 kPa; Liquid; Chromatography; x1 = 0
Overview of reported activity coefficient across a group of molecules:
Keep the answer to the number alone.

CCCCCCC [heptane] + CCCCn1cc[n+](C)c1.[O-][Cl+3]([O-])([O-])[O-]; 108
CC(C)CC(C)(C)C [2,2,4-trimethylpentane] + CCCCn1cc[n+](C)c1.[O-][Cl+3]([O-])([O-])[O-]; 119
C1=CCCCC1 [cyclohexene] + CCCCn1cc[n+](C)c1.[O-][Cl+3]([O-])([O-])[O-]; 14.6

In the following, a different molecule is considered.
Please give the measured activity coefficient for this molecule: O [water] + CCCCn1cc[n+](C)c1.[O-][Cl+3]([O-])([O-])[O-]
1.02

====

assay: activity coefficient (dimensionless); of the first substance listed, at infinite dilution; xn = mol fraction of the nth substance listed; conditions: 323.15 K; 101.33 kPa; Liquid; Chromatography; x1 = 0
Hi! Could you tag entries with activity coefficient below 5 as Criterion met, and those at or above as Criterion not met? Much appreciated.

Some solved entries appear below for comparison.
CCCCCC [hexane] + CCCCn1cc[n+](C)c1.[O-][Cl+3]([O-])([O-])[O-]; Criterion not met
CCCCCCCCC [nonane] + CCCCn1cc[n+](C)c1.[O-][Cl+3]([O-])([O-])[O-]; Criterion not met
ClC(Cl)Cl [trichloromethane] + CCCCn1cc[n+](C)c1.[O-][Cl+3]([O-])([O-])[O-]; Criterion met
CCCO [propan-1-ol] + CCCCn1cc[n+](C)c1.[O-][Cl+3]([O-])([O-])[O-]; Criterion met

Does the reported activity coefficient of the following compound sit strictly below 5? CO [methanol] + CCCCn1cc[n+](C)c1.[O-][Cl+3]([O-])([O-])[O-]
Criterion met

Next entry: C1COCCO1 [1,4-dioxane] + CCCCn1cc[n+](C)c1.[O-][Cl+3]([O-])([O-])[O-]
Criterion met

And what about the compound ClC(Cl)(Cl)Cl [tetrachloromethane] + CCCCn1cc[n+](C)c1.[O-][Cl+3]([O-])([O-])[O-] ?
Criterion met

====

assay: activity coefficient (dimensionless); of the first substance listed, at infinite dilution; xn = mol fraction of the nth substance listed; conditions: 353.15 K; 101.33 kPa; Liquid; Chromatography; x1 = 0
Output T for records whose activity coefficient is lower than 100, F for records at or above 100.

Field: example entries. Status: answers known.
CCCCCC [hexane] + CCCCn1cc[n+](C)c1.[O-][Cl+3]([O-])([O-])[O-]; F
CCCCCCC [heptane] + CCCCn1cc[n+](C)c1.[O-][Cl+3]([O-])([O-])[O-]; F
Cc1ccccc1C [1,2-dimethylbenzene] + CCCCn1cc[n+](C)c1.[O-][Cl+3]([O-])([O-])[O-]; T
Cc1ccc(C)cc1 [1,4-dimethylbenzene] + CCCCn1cc[n+](C)c1.[O-][Cl+3]([O-])([O-])[O-]; T
CCCCO [butan-1-ol] + CCCCn1cc[n+](C)c1.[O-][Cl+3]([O-])([O-])[O-]; T
CC(C)=O [acetone] + CCCCn1cc[n+](C)c1.[O-][Cl+3]([O-])([O-])[O-]; T
CCC(C)O (stereo not drawn) [butan-2-ol] + CCCCn1cc[n+](C)c1.[O-][Cl+3]([O-])([O-])[O-]; T

Attention now turns to another entry.
Find out if reported activity coefficient for CCCCCCCCC [nonane] + CCCCn1cc[n+](C)c1.[O-][Cl+3]([O-])([O-])[O-] is less than 100
F

====

test: activity coefficient (dimensionless); of the first substance listed, at infinite dilution; xn = mol fraction of the nth substance listed; conditions: 313.15 K; 101.33 kPa; Liquid; Chromatography; x1 = 0
MEASURED ENDPOINT: activity coefficient
# answer = number (no unit)

Known results for compounds:
CCCCCCCCC [nonane] + CCCCn1cc[n+](C)c1.[O-][Cl+3]([O-])([O-])[O-]; 142
c1ccccc1 [benzene] + CCCCn1cc[n+](C)c1.[O-][Cl+3]([O-])([O-])[O-]; 1.82

What does the record list as activity coefficient for CC1CCCCC1 [methylcyclohexane] + CCCCn1cc[n+](C)c1.[O-][Cl+3]([O-])([O-])[O-] ?
46.7

Same question for C1=CCCCC1 [cyclohexene] + CCCCn1cc[n+](C)c1.[O-][Cl+3]([O-])([O-])[O-] please.
14.8

How about CC(C)O [propan-2-ol] + CCCCn1cc[n+](C)c1.[O-][Cl+3]([O-])([O-])[O-] ?
2.18

====

assay: activity coefficient (dimensionless); of the first substance listed, at infinite dilution; xn = mol fraction of the nth substance listed; conditions: 313.15 K; 101.33 kPa; Liquid; Chromatography; x1 = 0
# activity coefficient values compiled below
Please respond with just the number, no unit label.

C1CCOC1 [tetrahydrofuran] + CCCCn1cc[n+](C)c1.[O-][Cl+3]([O-])([O-])[O-]; 1.57
CCCCCC [hexane] + CCCCn1cc[n+](C)c1.[O-][Cl+3]([O-])([O-])[O-]; 89.2

Now consider a different molecule.
Query (molecule): CO [methanol] + CCCCn1cc[n+](C)c1.[O-][Cl+3]([O-])([O-])[O-] ; field requested: activity coefficient
1.06
